Assay: protein stability index of a GFP-peptide fusion (yeast GPS) (PSI 1-4); higher = more stable; sorted into four equal gates, so the index is relative within each strain
Settings: doa10∆
Note: every record was labeled by where its protein stability index sits among low bin (below 2), mid bin (2 to below 3), high bin (3 or more)

input: Could you tell me which band IELSVPDRQSMDSRVAH [SRB5] belongs to?
output: high bin

input: Could you tell me which band SAPPPALPHVEINQVSL [RGR1] belongs to?
output: mid bin

input: Could you tell me which band KNGLYQEAFKIYQHLAS [SRP72] belongs to?
output: low bin

input: Could you tell me which band EEKEESNLAATKSMVKI [RPN11] belongs to?
output: high bin

input: Could you tell me which band YMDCLLYDLRASYAKIE [SNU114] belongs to?
output: low bin

input: Could you tell me which band IAAMVAQKCGWTIPHKK [SIR2] belongs to?
output: mid bin

input: Could you tell me which band TFTIQLLKLTKVFIRES [YML103C/NUP188] belongs to?
output: mid bin

input: Could you tell me which band DPPNEGDPFDYKAQADT [RPB3] belongs to?
output: high bin

input: Could you tell me which band PGFQLPNRITLTDHRKE [SRB8] belongs to?
output: mid bin

input: Could you tell me which band VNIPSFMVRLDSEKHID [RPS9A] belongs to?
output: mid bin

input: Could you tell me which band STKRVTKHPSLKTLTHK [POP7] belongs to?
output: mid bin

input: Could you tell me which band VKCKMSALQQIMYQQML [SNF2] belongs to?
output: mid bin

input: Could you tell me which band TTQGGLTSVTRHGFNRS [RPO21] belongs to?
output: high bin

input: Could you tell me which band NSIYCPTQTVAELDLMS [RPN6] belongs to?
output: mid bin

input: Could you tell me which band KNFDMLNSMEKDRISHE [PCI8] belongs to?
output: mid bin

input: Could you tell me which band SEILSFDPVYTTVITVF [YML103C/NUP188] belongs to?
output: mid bin

input: Could you tell me which band LKTEAANVLDPSLRKLI [BRR2] belongs to?
output: mid bin

input: Could you tell me which band AAELLDKRIVISIDSWP [DIS3] belongs to?
output: low bin

input: Could you tell me which band LEDQQRQQKLLLETKLR [SWI1] belongs to?
output: mid bin

input: Could you tell me which band RLNKLNSNGIAMASLYL [SMD1] belongs to?
output: mid bin

input: Could you tell me which band ASTINGASIIQVIFEIF [YML103C/NUP188] belongs to?
output: low bin

input: Could you tell me which band QGVYGAVYETLISRMIF [BRR2] belongs to?
output: mid bin

input: Could you tell me which band FDKVIYHLHPTFANPNR [TAF14] belongs to?
output: low bin

input: Could you tell me which band ALALYVDAYRRLENKLS [SRP68] belongs to?
output: low bin

input: Could you tell me which band RRLPEDESYARAYRIIR [QCR7] belongs to?
output: mid bin

input: Could you tell me which band PNERKAKQAKIRAGEFD [SNF2] belongs to?
output: high bin

input: Could you tell me which band QQIPLLCYMAPMTVKLV [POP3] belongs to?
output: low bin

input: Could you tell me which band ALIDAGISMFDYISGIS [SKI6] belongs to?
output: low bin

input: Could you tell me which band KEKWPSLELQSFQKIPL [YML103C/NUP188] belongs to?
output: mid bin

input: Could you tell me which band LDPLEMEGNAQPVNFNR [RPO31] belongs to?
output: high bin

input: Could you tell me which band ELSFYILYSFKLSGKLL [YML103C/NUP188] belongs to?
output: low bin

input: Could you tell me which band LFSPEEVRAISVAKIRF [RPO21] belongs to?
output: mid bin

input: Could you tell me which band IPIAIVLKACGILSDLE [RET1] belongs to?
output: low bin

input: Could you tell me which band TCVSMAPIQLKIDLLSG [RGR1] belongs to?
output: low bin

input: Could you tell me which band VNVEKFNVEYFAKEKLT [RPL6A] belongs to?
output: low bin

input: Could you tell me which band TVLCTPTGGKAKLSEGT [RPS27B] belongs to?
output: high bin

input: Could you tell me which band TLQDFHLIFSNARIYNT [SNF2] belongs to?
output: mid bin

input: Could you tell me which band YLINGKRFKRKDNAKIS [SRP68] belongs to?
output: low bin

input: Could you tell me which band IQTVVISLLALPHSPLW [YML031W/NDC1] belongs to?
output: low bin

input: Could you tell me which band NTSESLLVDIQKYNQIQ [SMC2] belongs to?
output: low bin

input: Could you tell me which band IGGSDAAFEKRYRVDLL [RPO21] belongs to?
output: high bin

input: Could you tell me which band DHASIRRGYQVYREVCA [CYT1] belongs to?
output: low bin

input: Could you tell me which band VAQLKPFFKYIDDANVT [RPC37] belongs to?
output: mid bin

input: Could you tell me which band SKINELSYYVEETNVDI [SMC4] belongs to?
output: high bin

input: Could you tell me which band KAKSVVNDVEELGEIID [RMP1] belongs to?
output: high bin

input: Could you tell me which band KSPPQFFYNISSIHWNN [SIN4] belongs to?
output: mid bin

input: Could you tell me which band QQQRRQLTPQQQQLVNQ [GAL11] belongs to?
output: mid bin

input: Could you tell me which band LVDDENEPSQSLISTRN [BRN1] belongs to?
output: high bin

input: Could you tell me which band DYSKPNLPPHYALFLKA [SSN2] belongs to?
output: mid bin

###

Assay: protein stability index of a GFP-peptide fusion (yeast GPS) (PSI 1-4); higher = more stable; sorted into four equal gates, so the index is relative within each strain
Settings: san1∆
Exercise: state measured protein stability index for each of the sequences provided.
Give a plain numeric answer without units written out.

input: // protein stability index lookup, key: KLREPVARFLHFNGIRR [ITC1]
output: 2.5

input: // protein stability index lookup, key: FIKEIHKSIELISNLLF [YCS4]
output: 2.48

input: // protein stability index lookup, key: IEEQGWGGFPLDISVFL [TAF14]
output: 3.35

input: // protein stability index lookup, key: KTAKEVAGAIRAGIIIA [RPS2]
output: 2.69

input: // protein stability index lookup, key: HMDYDGNIVKEFENKFQ [YMR129W/POM152]
output: 3.36

input: // protein stability index lookup, key: AGKWSSKYLIKQIDIPN [ECM29]
output: 2.15

input: // protein stability index lookup, key: KFADGFLIHSGQPVNDF [RPS3]
output: 3.22

input: // protein stability index lookup, key: TINGKVNGRTKSNTIPV [GAL11]
output: 3.02

input: // protein stability index lookup, key: RTLEAITATLVGTVRCE [CSL4]
output: 1.5

input: // protein stability index lookup, key: VNNPQEETSHLLTVTPG [RPN10]
output: 2.99

input: // protein stability index lookup, key: YSPTSPSYSPTSPSYSP [RPO21]
output: 2.87

input: // protein stability index lookup, key: TVPNINFSGLNGGITNT [YOR098C/NUP1]
output: 3.74

input: // protein stability index lookup, key: DDDDSRKSAPVDSWDRE [SKP1]
output: 3.21

input: // protein stability index lookup, key: DEKVTILVDSLTGNQLP [SWI1]
output: 2.9

input: // protein stability index lookup, key: DGTAQLSNNKTDEEEQL [YJR042W/NUP85]
output: 3.27

input: // protein stability index lookup, key: LDTLPSEFDSRVKAMEV [RPT5]
output: 3.2

input: // protein stability index lookup, key: SDFISKLEYPHTDVSSS [RPN3]
output: 2.82

input: // protein stability index lookup, key: DLKRFVDESLLSTLPAG [QCR2]
output: 2.52

input: // protein stability index lookup, key: KRVHTLLTLIVREYEQP [ISW2]
output: 3.06

input: // protein stability index lookup, key: PAITIEKLKQFSWISVV [SIR3]
output: 1.24

input: // protein stability index lookup, key: KSPPQFFYNISSIHWNN [SIN4]
output: 2.17

input: // protein stability index lookup, key: VGVGKLNKLYGGAKSRG [RPS19A]
output: 3.2

input: // protein stability index lookup, key: EDSSILQSIVNEISRNG [PCI8]
output: 3

input: // protein stability index lookup, key: SRGLFEKKLMQDNKQLY [YDL116W/NUP84]
output: 3.11

input: // protein stability index lookup, key: MDFFNLNNNNNNNNTTT [SWI1]
output: 2.53

input: // protein stability index lookup, key: SHTGLVRKYDLNICRQC [RPS29B]
output: 1.94

input: // protein stability index lookup, key: LEVGRRFSPDEDFEHNN [MCD1]
output: 3.22

input: // protein stability index lookup, key: LRGSLLSRKPSDNKKRS [RPC82]
output: 3.27

input: // protein stability index lookup, key: FDPVYTTVITVFLEFSL [YML103C/NUP188]
output: 1.8

input: // protein stability index lookup, key: FIENFLTNDTFEKKLSI [YML103C/NUP188]
output: 3.2

input: // protein stability index lookup, key: IQMNNSLQNNLQNNINN [SNF11]
output: 3.06

input: // protein stability index lookup, key: LGVPRIKEIINASKVIS [RPO31]
output: 1.49

input: // protein stability index lookup, key: NAVTAAAANNNIKPVEQ [GAL11]
output: 2.77

input: // protein stability index lookup, key: EKDASGKPSFVFGASDK [YOR098C/NUP1]
output: 2.98

input: // protein stability index lookup, key: LSSDDLLGKESFKKIIK [YCS4]
output: 3.39

input: // protein stability index lookup, key: AINIMNRSNDALIKFME [FAS2]
output: 3.26

input: // protein stability index lookup, key: VTVEQLRSIYHQFHDIL [NSL1]
output: 1.31

input: // protein stability index lookup, key: MKSLLTELSNKETTIEK [YIL149C/MLP2]
output: 3.41

input: // protein stability index lookup, key: TVEALDFREKALYIAMM [RET1]
output: 3.29

input: // protein stability index lookup, key: IQRFFALHYLVPFIIAA [COB]
output: 1.11

input: // protein stability index lookup, key: RTMLELITQLDGFDPRG [RPT1]
output: 2.91

input: // protein stability index lookup, key: VLSALEGKSVDELITEG [RPP2A]
output: 3.41

input: // protein stability index lookup, key: SAKPTFSFSKSEEERKS [YOR098C/NUP1]
output: 1.93

input: // protein stability index lookup, key: DPVLDWRKSDRELTKNI [SIR4]
output: 2.52

input: // protein stability index lookup, key: TDDYFEELRDLYQTYHV [FAS1]
output: 3.33

input: // protein stability index lookup, key: LSLGMDFIKFDQIAVCE [BRN1]
output: 2.77

input: // protein stability index lookup, key: KDEEETEYFENKQSVSN [DSN1]
output: 3.31

input: // protein stability index lookup, key: TSTGTTIVGVKFNNGVV [PUP1]
output: 3.01

input: // protein stability index lookup, key: ADAKAFLDSMAQKYASI [FAS2]
output: 3.12

input: // protein stability index lookup, key: RIFAIAFTRKQANQVKR [RPS1A]
output: 1.99

input: // protein stability index lookup, key: KNFDMLNSMEKDRISHE [PCI8]
output: 2.35

input: // protein stability index lookup, key: TPSDLSESGSKLNVDQF [POP1]
output: 3.19

input: // protein stability index lookup, key: LRELDVELIESKINELS [SMC4]
output: 3.38

input: // protein stability index lookup, key: HFELGGEKKQKGQALQF [RPL42A]
output: 2.46

input: // protein stability index lookup, key: LNYGNICEPKETLSIFT [YJL039C/NUP192]
output: 2.02

input: // protein stability index lookup, key: NNSGNDNNNTTNNDSNN [MED2]
output: 3.13

input: // protein stability index lookup, key: VQESGNIDYQKGLLIWR [GRR1]
output: 3.37

input: // protein stability index lookup, key: KIAKRRQVYKPVLDNPF [POP3]
output: 1.99

input: // protein stability index lookup, key: YQTRARQKARTDAHTPL [RPR2]
output: 3.32

input: // protein stability index lookup, key: SRMTVGKMIELISGKAG [RET1]
output: 3.05
